Reference source: ChEMBL document CHEMBL1134519

Below, each of the compounds is paired with its reported pKi value.
Target or test system: Neuronal acetylcholine receptor; alpha4/beta2 (Rattus norvegicus, UniProt P09483+P12390)
Sequence (P09483 whole entry): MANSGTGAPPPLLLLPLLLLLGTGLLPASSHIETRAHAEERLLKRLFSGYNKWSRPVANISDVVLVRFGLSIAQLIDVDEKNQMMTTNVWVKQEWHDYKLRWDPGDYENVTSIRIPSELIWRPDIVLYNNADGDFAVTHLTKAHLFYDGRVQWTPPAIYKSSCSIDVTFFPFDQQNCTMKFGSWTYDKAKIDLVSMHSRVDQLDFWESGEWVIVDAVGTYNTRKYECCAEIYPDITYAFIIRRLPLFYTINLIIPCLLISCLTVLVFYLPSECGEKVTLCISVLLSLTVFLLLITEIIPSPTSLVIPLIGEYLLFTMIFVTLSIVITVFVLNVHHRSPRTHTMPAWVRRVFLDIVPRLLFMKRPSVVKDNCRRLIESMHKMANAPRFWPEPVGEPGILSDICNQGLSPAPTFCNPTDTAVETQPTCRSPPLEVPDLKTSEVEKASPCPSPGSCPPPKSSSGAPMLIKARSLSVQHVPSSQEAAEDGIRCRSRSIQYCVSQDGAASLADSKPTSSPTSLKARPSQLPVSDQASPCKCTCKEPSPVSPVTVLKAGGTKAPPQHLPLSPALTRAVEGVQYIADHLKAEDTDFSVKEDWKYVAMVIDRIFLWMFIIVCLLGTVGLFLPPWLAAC
Sequence (P12390 whole entry): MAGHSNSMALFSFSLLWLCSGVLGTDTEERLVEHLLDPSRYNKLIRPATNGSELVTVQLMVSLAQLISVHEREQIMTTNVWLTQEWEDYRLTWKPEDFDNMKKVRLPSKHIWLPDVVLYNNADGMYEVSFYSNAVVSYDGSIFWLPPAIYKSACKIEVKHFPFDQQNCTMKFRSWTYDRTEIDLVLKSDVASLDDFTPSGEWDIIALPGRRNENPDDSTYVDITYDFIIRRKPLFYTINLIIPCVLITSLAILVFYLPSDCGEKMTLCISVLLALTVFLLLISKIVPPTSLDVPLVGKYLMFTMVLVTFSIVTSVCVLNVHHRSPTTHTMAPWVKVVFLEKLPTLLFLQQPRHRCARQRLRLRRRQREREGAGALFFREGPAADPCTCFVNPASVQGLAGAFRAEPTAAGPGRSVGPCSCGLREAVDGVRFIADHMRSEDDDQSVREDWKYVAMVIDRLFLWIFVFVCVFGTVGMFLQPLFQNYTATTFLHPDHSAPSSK
Experiment description: Inhibition of [3H]-nicotine binding at the nicotinic acetylcholine receptor alpha4-beta2
Format: protein-complex assay
When answering, recall that pKi equals minus log10 of the concentration in mol/L, and write that number alone.

Study these solved cases before continuing.
INSERT INTO measurements (compound, number) VALUES
  ('CN1CCCC1c1ccc(O)nc1 (stereo not given)', 5.97),
  ('CN1CCCC1c1ccc(N)nc1 (stereo not given)', 7.09),
  ('CN1CCCC1c1ccc(F)nc1 (stereo not given)', 8.99),
  ('CN1CCCC1c1ccc(Br)nc1 (stereo not given)', 9.35);

Inquiry: Entry under review: CN1CCCC1c1ccc(Cl)nc1 (stereo not given) . Reported pKi?
Reply text: 9.20

====

Target or test system: Neuronal acetylcholine receptor; alpha4/beta2 (Rattus norvegicus, UniProt P09483+P12390)
Experiment description: Inhibition of […] binding at the nicotinic acetylcholine receptor alpha4-beta2 in male rat cerebral cortex
Assay type: tissue-based
Measured endpoint: pKi
Notebook: values listed as pKi are -log10 of the concentration (mol/L).

Inquiry: Could you tell me which pKi is on file for O=c1ccc(C2CC3CCC2N3)c[nH]1 (stereo unspecified) ?
Reply text: 6.97

====

Below, each of the compounds is paired with its reported Hill coefficient value.
Experiment description: Hill slope value of the compound
A bare number is all that is needed in reply.

Below, each entry is followed by its recorded Hill coefficient result.
INSERT INTO results (compound, number) VALUES
  ('CN1CCC[C@H]1c1cccnc1 [NICOTINE]', 0.9),
  ('Brc1ccc(C2CC3CCC2N3)cn1 (configuration not stated)', 0.9),
  ('Oc1ccc(C2CC3CCC2N3)cn1 (configuration not stated)', 1),
  ('c1cncc(C2CC3CCC2N3)c1 (configuration not stated) [DESCHLOROEPIBATIDINE]', 0.8),
  ('Fc1ccc(C2CC3CCC2N3)cn1 (configuration not stated)', 0.9),
  ('Nc1ccc(C2CC3CCC2N3)cn1 (configuration not stated)', 1);

Here's the next entry for you.
Inquiry: So what's the measured Hill coefficient for this one? CN(C)c1ccc(C2CC3CCC2N3)cn1 (configuration not stated)
Reply text: 1

====

Target or test system: Neuronal acetylcholine receptor; alpha4/beta2 (Rattus norvegicus, UniProt P09483+P12390)
Experiment description: Inhibition of [3H]epibatidine binding at the nicotinic acetylcholine receptor alpha4-beta2 in male rat cerebral cortex
Type: tissue-based
Quick list: pKi per entry.
Worth noting: pKi values are minus log10 of concentrations stated in mol/L.

Before answering, review these 3 worked examples.
INSERT INTO measurements (molecule, number) VALUES
  ('Nc1ccc(C2CC3CCC2N3)cn1 (centres undefined)', 8.89),
  ('c1cncc(C2CC3CCC2N3)c1 (centres undefined) [DESCHLOROEPIBATIDINE]', 10.70),
  ('Brc1ccc(C2CC3CCC2N3)cn1 (centres undefined)', 10.64);

Attention now turns to another entry.
Inquiry: Data request, read-out pKi, for Ic1ccc(C2CC3CCC2N3)cn1 (centres undefined)
Reply text: 10.15

====

Organism: Mus musculus
Experiment description: Antinociception by tail-flick test in male ICR mice after intrathecal (i.t.) injection
Assay type: functional
Measured endpoint: ED50 (nM mouse-1)
# number only, unit nM mouse-1 dropped from output

Field: example entries. Status: answers known.
INSERT INTO assay_data (compound, unit_name, number) VALUES
  ('Fc1ccc(C2CC3CCC2N3)cn1 (configuration not stated)', 'nM mouse-1', 0.31),
  ('Clc1ccc([C@H]2C[C@@H]3CC[C@H]2N3)cn1 [(-)-EPIBATIDINE]', 'nM mouse-1', 0.6),
  ('Brc1ccc(C2CC3CCC2N3)cn1 (configuration not stated)', 'nM mouse-1', 0.33),
  ('Clc1ccc([C@@H]2C[C@H]3CC[C@@H]2N3)cn1 [(+)-EPIBATIDINE]', 'nM mouse-1', 0.5),
  ('c1cncc(C2CC3CCC2N3)c1 (configuration not stated) [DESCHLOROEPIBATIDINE]', 'nM mouse-1', 0.2);

Inquiry: # get_value(readout='ED50', item= CN1CCC[C@H]1c1cccnc1 [NICOTINE] )
Reply text: 74

Inquiry: Now the same for Oc1ccc(C2CC3CCC2N3)cn1 (configuration not stated)
Reply text: 52.4
